Data provenance: PubChem BioAssay (NCI)

# maps each entry to its growth
Tested on: HCC-2998 colon
PROTOCOL: NCI-60 one-dose screen, 48 h (100 = growth as untreated, 0 = no growth, -100 = all killed)
RUN_CONDITIONS: 10 µM
The panel holds about 83,000 compounds, 20% with a hit somewhere; the sample as a whole holds those more often.
MEASUREMENT_TYPE: growth (%)

1) CCCCC/C=N/Nc1nc(C)cc(=O)[nH]1 = 98.8
2) NC(=S)CN1CCOCC1 = 102
3) C#Cc1cccc(NC(=O)c2ccc(Cl)cc2Cl)c1 = 113
4) Nc1nc(OCc2ccccc2)c2[nH]cnc2n1 = 104
5) CC(=O)OCC1=CC2OC(=O)C3=COC(OC4OC(CO)C(O)C(O)C4O)C1C32 (stereo not drawn) = 300
6) CC1CC(O)CC(C)(C)C1 (stereo not drawn) = 109
7) O=P(O)(O)OCC(O)CO (stereo not drawn) = 107
8) c1ccc(Sc2ccccc2)cc1 = 105
9) COS(=O)(=O)c1ccc(Br)cc1 = 99.8
10) CC1CCCC(CC(N)=O)CC1 (stereo not drawn) = 102
11) CCCCCCCCCCCCCC(=O)Oc1ccc[nH]c1=O = 109
12) Cc1ccc(N)cc1[N+](=O)[O-] = 92.5
13) CN(C)c1ccc(S(=O)(=O)O)cc1 = 103
14) CCNCCCCNCCCCNCCCCNCCCCNCC = 101
15) O=C(CCNNC(=O)c1ccncc1)NCc1ccccc1 = 111
16) CC1(C)S(=O)(=O)OCCOS1(=O)=O = 113
17) CCCCCCCCCCCCCCCCC1CC(=O)OC1=O (stereo not drawn) = 114
18) CSC[C@H](NC(=O)COc1cccc2cnccc12)C(=O)NC(Cc1ccccc1)C(O)C(=O)N1CSC[C@H]1C(=O)NC(C)(C)C (stereo partly drawn) = 108
19) COC(=O)Nc1cccc(Cl)c1OC = 104
20) Cc1ccc(C(=O)N/N=C/c2ccc3c(c2)OCO3)cc1 = 96
21) CCCCC(CC)COC(C)=O (stereo not drawn) = 105
22) Cc1cc(N)ccc1-c1ccc(N)cc1C = 88.4
23) S=C1NCc2cncnc2N1 = 106
24) CCCCCCCCO = 103
25) NCC(=O)CCC(=O)O = 97.4
26) Cc1cccc([N+](=O)[O-])c1Cl = 86.1
27) COc1cc2c3c(n(C)c(=O)c2cc1OC)-c1cc2c(cc1C3=O)OCO2 = 64.5
28) CC[N+](C)(CC)CCO = 102

* * *

Test system: HCC-2998 colon
PROTOCOL: NCI-60 one-dose screen, 48 h
RUN_CONDITIONS: 10 µM
The panel holds about 83,000 compounds, 20% with a hit somewhere; the sample as a whole holds those more often. The source made the active and inactive calls. Rule for the calls: active = growth percent below 10; inactive = the rest.
Outcome codes: 1 (yes) for active, 0 (no) for inactive

1) CCCC(=O)Nc1ccc2c(c1)CN1C(=O)c3ccccc3C1=N2 = 0 (no)
2) O=S(=O)(O)c1ccc(O)c2ccccc12 = 0 (no)
3) Cc1cc(=O)n(-c2ccc(F)cc2)[nH]1 = 0 (no)
4) O=c1cc(-c2ccccc2)[nH]c(=S)[nH]1 = 0 (no)
5) O=C1C=CC2=C3c4cc(O)c(O)cc4CC3(O)COC2=C1O (stereo unspecified) = 1 (yes)
6) CNC(=S)NC(C)(C)C = 0 (no)
7) CC(=O)c1ccc(C)c(N)c1 = 0 (no)
8) O=C1C=CC(=O)N1c1ccc(I)cc1Cl = 0 (no)
9) Cc1ccc(CCCC(=O)O)c(C)c1 = 0 (no)
10) Nc1ccc(NC(=O)c2cccc(N)c2)cc1 = 0 (no)
11) O=C(CCl)N1CCN(C/C=C/c2ccccc2)CC1 = 0 (no)
12) [O-][N+](=Nc1cccc(Cl)c1)c1cccc(Cl)c1 = 0 (no)
13) O=C1C=C(Nc2ccc([N+](=O)[O-])cc2)c2ccccc2C1=O = 0 (no)
14) CCCC(=O)c1cc(C)ccc1OC = 0 (no)
15) CC(=O)Nc1c(C)cc(C)cc1C = 0 (no)
16) CC(CN1CCCCC1)NC(=O)c1scnc1-c1ccccc1 (stereo unspecified) = 0 (no)
